Target: Gcr1 (UniProt P07261)
Sequence: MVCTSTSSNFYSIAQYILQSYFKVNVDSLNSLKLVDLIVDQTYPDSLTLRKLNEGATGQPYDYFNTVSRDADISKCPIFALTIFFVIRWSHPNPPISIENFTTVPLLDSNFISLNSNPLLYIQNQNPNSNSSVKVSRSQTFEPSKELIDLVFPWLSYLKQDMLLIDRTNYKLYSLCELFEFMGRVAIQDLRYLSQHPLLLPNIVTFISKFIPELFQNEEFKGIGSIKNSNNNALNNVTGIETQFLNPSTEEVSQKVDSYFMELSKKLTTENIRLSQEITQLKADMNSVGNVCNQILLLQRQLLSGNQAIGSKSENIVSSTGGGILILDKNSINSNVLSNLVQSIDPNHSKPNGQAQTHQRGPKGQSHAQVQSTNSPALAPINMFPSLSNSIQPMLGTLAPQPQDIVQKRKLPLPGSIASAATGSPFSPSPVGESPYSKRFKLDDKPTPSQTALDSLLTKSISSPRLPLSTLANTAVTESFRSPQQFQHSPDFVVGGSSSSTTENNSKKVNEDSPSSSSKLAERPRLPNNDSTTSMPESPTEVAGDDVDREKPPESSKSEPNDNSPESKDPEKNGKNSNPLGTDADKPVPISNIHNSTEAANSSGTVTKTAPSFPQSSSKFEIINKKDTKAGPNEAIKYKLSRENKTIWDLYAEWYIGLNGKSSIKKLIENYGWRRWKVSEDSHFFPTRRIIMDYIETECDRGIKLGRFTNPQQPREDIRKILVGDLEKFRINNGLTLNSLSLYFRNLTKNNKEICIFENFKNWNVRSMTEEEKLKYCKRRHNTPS
Assay: PBM E-score (8-mer binding enrichment) (E-score (-0.5 to 0.5)); higher = stronger / more preferred TF binding
Conditions: protein concentration: 100 nM; construct: GST-full length
Over roughly 33,000 sequences, “E-score (-0.5 to 0.5)” has its median near -0.011; the highest 2% begin near 0.28. The full list was thinned out, with the highest values kept by preference.
What PBM E-score was measured for each of the following?
Output spec: single numeric token, no unit.

Input: Using known records, supply PBM E-score for "CAGGCAGA"
Output: -0.0141

Input: Name the recorded PBM E-score of the sequence listed here: "ACACGCAG"
Output: 0.323

Input: Recall and state the measured PBM E-score for "CTGGGCAC" .
Output: 0.239

Input: Quote PBM E-score reported for "CTGGCATC" please.
Output: 0.304

Input: // Input: "AGCAACCA" . Output its PBM E-score only.
Output: 0.349

----------
Consider the following sequences; for each one, report its PBM E-score.
Target: Gcr1 (UniProt P07261)
Sequence: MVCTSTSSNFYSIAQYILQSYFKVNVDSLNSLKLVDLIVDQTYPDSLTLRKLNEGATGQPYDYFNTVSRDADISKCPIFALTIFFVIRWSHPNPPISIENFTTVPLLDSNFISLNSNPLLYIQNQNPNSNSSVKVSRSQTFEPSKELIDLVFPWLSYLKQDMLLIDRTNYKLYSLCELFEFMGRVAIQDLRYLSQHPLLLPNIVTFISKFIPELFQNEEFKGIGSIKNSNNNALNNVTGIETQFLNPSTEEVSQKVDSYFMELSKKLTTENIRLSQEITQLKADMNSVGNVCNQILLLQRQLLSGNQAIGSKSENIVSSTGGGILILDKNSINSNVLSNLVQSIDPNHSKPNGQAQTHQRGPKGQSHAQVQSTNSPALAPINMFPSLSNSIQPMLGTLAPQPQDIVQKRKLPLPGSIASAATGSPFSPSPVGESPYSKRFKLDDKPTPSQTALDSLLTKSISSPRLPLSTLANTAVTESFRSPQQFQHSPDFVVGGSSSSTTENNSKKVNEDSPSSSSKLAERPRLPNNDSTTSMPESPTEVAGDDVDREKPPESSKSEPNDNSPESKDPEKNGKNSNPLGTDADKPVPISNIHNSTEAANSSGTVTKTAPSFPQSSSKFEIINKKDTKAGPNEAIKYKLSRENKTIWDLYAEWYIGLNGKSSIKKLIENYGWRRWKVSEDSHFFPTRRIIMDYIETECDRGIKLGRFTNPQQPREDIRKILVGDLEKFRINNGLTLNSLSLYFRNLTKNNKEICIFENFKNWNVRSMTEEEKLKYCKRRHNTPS
Assay: PBM E-score (8-mer binding enrichment) (E-score (-0.5 to 0.5)); higher = stronger / more preferred TF binding
Conditions: protein concentration: 100 nM; construct: GST-full length
Over roughly 33,000 sequences, “E-score (-0.5 to 0.5)” has its median near -0.011; the highest 2% begin near 0.28. The sample holds the highest values, similar sequences and a random draw of the others, so the mix is not that of the screen.
Response field accepts a number only; no unit should be typed.

Input: # return recorded PBM E-score for entry "CGAGGGGC"
Output: 0.0171

Input: Assign PBM E-score to the following record: "CCACTACC"
Output: 0.125

Input: State its PBM E-score for this sequence: "GATCCCCC"
Output: 0.176

Input: Please list PBM E-score recorded for the sequence "AAAAGAGC"
Output: -0.0507

Input: Give the reported value of PBM E-score for this record: "ACTTCCAA"
Output: 0.303

Input: Read off the recorded PBM E-score for "ATGGCGCA"
Output: -0.122

Input: Find the measured PBM E-score of "ATGGATGG" and report it.
Output: -0.034

Input: Item "ATGGCGTG" : provide PBM E-score
Output: -0.0168

Input: Indicate its recorded PBM E-score; the sequence in question is "AGATCGAT"
Output: -0.137

Input: For "TACAGGTA" , write its PBM E-score.
Output: 0.0633

Input: Provide one value: measured PBM E-score of "CGCATAAA"
Output: 0.0544

Input: Tell me PBM E-score reported for "ACCCTGAA"
Output: 0.192

Input: Return the recorded PBM E-score value; entry: "CAATCTGG"
Output: -0.0284

Input: Consider the sequence "CCACTAGG" and give its recorded PBM E-score.
Output: 0.287

Input: Look up and report measured PBM E-score for this entry: "AGTTGCAA"
Output: -0.105

Input: Determine its reported PBM E-score: "ACCAACCT"
Output: -0.0617

Input: Give recorded PBM E-score. "AGCCTTGA"
Output: -0.273

----------
Molecular target: Gcr1 (UniProt P07261)
Sequence: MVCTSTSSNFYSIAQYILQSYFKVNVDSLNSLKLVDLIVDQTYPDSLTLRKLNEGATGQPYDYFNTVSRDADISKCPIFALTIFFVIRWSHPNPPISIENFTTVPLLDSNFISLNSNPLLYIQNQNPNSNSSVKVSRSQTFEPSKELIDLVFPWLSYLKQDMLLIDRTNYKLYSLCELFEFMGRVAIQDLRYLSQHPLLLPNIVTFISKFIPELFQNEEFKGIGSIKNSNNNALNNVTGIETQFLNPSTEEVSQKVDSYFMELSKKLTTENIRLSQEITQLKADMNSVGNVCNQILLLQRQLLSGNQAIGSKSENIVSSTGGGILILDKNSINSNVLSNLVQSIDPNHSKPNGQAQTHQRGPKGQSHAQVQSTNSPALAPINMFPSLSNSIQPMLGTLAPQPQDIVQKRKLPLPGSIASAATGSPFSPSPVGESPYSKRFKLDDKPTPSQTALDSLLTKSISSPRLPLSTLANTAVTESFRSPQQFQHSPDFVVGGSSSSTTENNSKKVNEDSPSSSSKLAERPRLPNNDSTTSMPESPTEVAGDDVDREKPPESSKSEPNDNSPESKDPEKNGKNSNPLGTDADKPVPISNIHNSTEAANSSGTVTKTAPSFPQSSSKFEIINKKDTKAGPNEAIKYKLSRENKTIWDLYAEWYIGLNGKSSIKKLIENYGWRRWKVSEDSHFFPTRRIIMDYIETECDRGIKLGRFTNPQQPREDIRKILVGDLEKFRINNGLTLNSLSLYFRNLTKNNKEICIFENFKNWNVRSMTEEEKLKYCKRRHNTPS
Assay: PBM E-score (8-mer binding enrichment) (E-score (-0.5 to 0.5)); higher = stronger / more preferred TF binding
Conditions: protein concentration: 100 nM; construct: GST-full length
Over roughly 33,000 sequences, “E-score (-0.5 to 0.5)” has its median near -0.011; the highest 2% begin near 0.28. This is one part of a sample in which the highest values are shown more often than they occur.
property name: PBM E-score

Input: Specify measured PBM E-score for "ATAGCTGA" .
Output: -0.0965

Input: Hello, please tell me recorded PBM E-score for this one: "ACGCGTCT"
Output: 0.155

Input: Give the measured PBM E-score for "ATAGCTGC"
Output: 0.285

Input: Please list PBM E-score recorded for the sequence "CAGTTCGG"
Output: 0.0773

Input: Tell me measured PBM E-score for "ATAGTGAA" please.
Output: -0.116

Input: Please give the documented PBM E-score of "ACTGCCAA"
Output: 0.0668

Input: Query PBM E-score for "ATAGTAGA"
Output: 0.191

Input: Report PBM E-score, nothing else, for this sequence: "CCAGATAA"
Output: 0.0427

Input: Supply PBM E-score value. Item: "ACCGGAGG"
Output: -0.09

Input: Write down PBM E-score measured for item "AGCACCAC"
Output: 0.235

Input: Find the measured PBM E-score of "ACCTGAGA" and report it.
Output: -0.038

Input: Please indicate PBM E-score recorded for "GAGGCTGC"
Output: 0.253

Input: Give PBM E-score for the following sequence: "AGGCTGCC"
Output: 0.382

Input: Fill in reported PBM E-score for this entry: "CGTGGGGA"
Output: 0.0446

Input: Kindly indicate its recorded PBM E-score. Item: "GAGCGTCC"
Output: 0.384

Input: Item "AAGATGCC" : provide PBM E-score
Output: 0.31

Input: Identify the reported PBM E-score for the following entry. "AGCTGGCA"
Output: 0.0163

Input: Quickly give me recorded PBM E-score for "AGCTTCGG"
Output: 0.17

Input: Supply PBM E-score value. Item: "AAAGTGGT"
Output: 0.167

Input: Given "CAGAAGCC" , respond with its PBM E-score.
Output: 0.306

Input: Supply PBM E-score value. Item: "CCAGATTA"
Output: 0.233

Input: Input "GGCGGGGA" , output reported PBM E-score.
Output: 0.304

Input: Entry "ACTGCCTA" needs its PBM E-score filled in; supply it.
Output: 0.0876

Input: Provide one value: measured PBM E-score of "GGCGGGAA"
Output: 0.0372

Input: Retrieve PBM E-score measured for "GAGATGCC" and print it.
Output: 0.158

Input: Report measured PBM E-score; entry is "ATGCTACG"
Output: 0.0159

Input: Let me know recorded PBM E-score for "CAACCCAG" , thanks.
Output: 0.00319

Input: Indicate the recorded PBM E-score value for this sequence: "AACCTGCA"
Output: -0.0327

Input: Annotate the sequence "CGCTTCAG" with its measured PBM E-score.
Output: 0.0898

Input: State its PBM E-score: "ACTGGATG"
Output: 0.326

Input: Look up and report measured PBM E-score for this entry: "ACGCGTCC"
Output: 0.292

Input: For the sequence "AGGCTGCA" , report PBM E-score.
Output: -0.0233

Input: Identify measured PBM E-score corresponding to "CGCGGGGA"
Output: 0.0382

Input: Retrieve PBM E-score measured for "CGGCTCCA" and print it.
Output: 0.0712

Input: Provide one value: measured PBM E-score of "CAGACGCG"
Output: 0.136

Input: Supply reported PBM E-score belonging to this sequence: "CCTGCCTA"
Output: 0.00507

Input: Identify measured PBM E-score corresponding to "CGGCTGCA"
Output: 0.0568

Input: Supply PBM E-score value. Item: "TATAAGGA"
Output: 0.124

Input: In one line, give reported PBM E-score of the entry "ATCGGATA" .
Output: 0.0757

Input: Indicate its recorded PBM E-score; the sequence in question is "CTGCTGCC"
Output: -0.0289

Input: Answer with the recorded PBM E-score of "CATCCAGA" only.
Output: 0.268

Input: # return recorded PBM E-score for input "AAGGCTGC"
Output: 0.302

Input: Using the record for "AAGACGCT" , state its measured PBM E-score.
Output: 0.218

Input: Give a short answer stating reported PBM E-score for "ATAGTGGA" .
Output: 0.376

Input: Note PBM E-score for the sequence shown: "ACTGCCAC"
Output: 0.101

Input: Tell us which PBM E-score value is on record for "CAAGTGGC"
Output: 0.146

Input: Given "AGCACCAT" , respond with its PBM E-score.
Output: 0.282

Input: Supply PBM E-score value. Item: "CAGGCCGA"
Output: -0.0271

Input: Please report the measured PBM E-score for "TCTGCCAA"
Output: 0.00421

Input: Give reported PBM E-score value for "CAGACGCA"
Output: 0.175

Input: Note down PBM E-score recorded for "AAGGCTGA"
Output: -0.141

Input: Indicate its recorded PBM E-score; the sequence in question is "TCCCCAAA"
Output: 0.226

Input: Respond only with PBM E-score recorded for "ACTGCGTA"
Output: 0.062

Input: For the sequence "AAGATGCA" , give its measured PBM E-score value.
Output: 0.0396
